systemTested: Laminin 421/521
assayProcedure: phage display, NGS count
readoutName: Count

The following binders have reported results that may help.
1) ASHSRPLMNYAP 49
2) NNNAAMQNHGVR 51
3) WAFKAPQ 61
4) YHLGPNQKMRTS 48

A = KPILWNRSLNAL
B = QLQHVHL
C = DRLTPITWDWSR
Order the 3 binders from highest to lowest Count. Please express your ranking as an ordered list of the labels. C, A, B

Values compiled from patent US20240207421A1.
